- System: Hek293T
- method_summary: Primary qHTS to identify gynecologic anti-cancer compounds using libraries of approved drugs and bioactive compounds (AID 1345084); also: nearly all actives have a fitted effect of over 55% in size
- reported_conditions: Gynecologic cancer cell panel viability, ATPlite luminescence, 48 h, control line for the selectivity index; series mostly up to 57.5 µM
Results filed as inconclusive are left out. Calls of active or inactive are those of the source. Calls follow the shape of the dose curve; as a rule, active = well fitted cell-killing curve with a large enough effect; inconclusive = small, poorly fitted or top-dose-only effect, or effect the other way; inactive = flat fitted curve, though single readings scatter.
The reply should name one outcome from active, inactive

Recorded results for 10 compounds are shown here.
INSERT INTO results (compound, system_name, class) VALUES
  ('Cc1cccc(-c2[nH]ncc2-c2ccc(F)c(-c3cnn(CCO)c3)c2)n1', 'Hek293T', 'inactive'),
  ('C/C=C(\C)C(=O)O[C@H]1C[C@](C)(O)[C@H]2CC=C(C)[C@H]2[C@@H]2OC(=O)[C@H](C)[C@H]21', 'Hek293T', 'inactive'),
  ('COc1cc(CCc2ccc(OCC=C(C)C)cc2)cc(OC)c1OC', 'Hek293T', 'inactive'),
  ('CC(=O)OCC(=O)[C@@]12O[C@@H]1C[C@H]1[C@@H]3CC=C4C[C@@H](O)CC[C@]4(C)[C@H]3CC[C@@]12C', 'Hek293T', 'inactive'),
  ('CN(C)C(=O)COC(=O)c1cc(-c2ccc(C3CCNCC3)cc2)c2ccc(-c3ccc(C(F)(F)F)cc3)cc2c1', 'Hek293T', 'inactive'),
  ('C=C1C(=O)O[C@@H]2/C=C(\C)CC/C=C(\C)CC[C@@H]12', 'Hek293T', 'inactive'),
  ('N#Cc1ccc(N2N=C3c4ccc(C(=O)O)cc4CC[C@@H]3[C@@H]2C2CCCC2)cc1Cl', 'Hek293T', 'inactive'),
  ('CC(=O)O[C@@H]1CC[C@@]2(C)C(CC[C@]3(C)C2[C@H](O)C=C2[C@H]4[C@@H](C)[C@H](C)CC[C@]4(C)CC[C@]23C)[C@@]1(C)C(=O)O (stereo partly drawn)', 'Hek293T', 'inactive'),
  ('O=C(Nc1ccn(Cc2ccc(O)cc2C(F)(F)F)n1)c1c(F)cccc1F', 'Hek293T', 'inactive'),
  ('Cn1ncc(Cl)c1-c1cc(C(=O)NC(CN)Cc2ccc(F)c(F)c2)oc1Cl (stereo not drawn)', 'Hek293T', 'active');

Q. Test call for this compound, please: C=C1C(=O)OC2C=C(C)CC/C=C(\CO)CC(O)C12 (stereo not drawn)
A. inactive

Q. Test call for this compound, please: "C=C1C(=O)O[C@@H]2C[C@H](C)[C@@H]3CC(=O)[C@H](O)[C@@]3(C)C[C@H]12"
A. inactive

Q. Test call for this compound, please: "COc1cc(N(C)CCN(C)C)c(N)cc1Nc1nccc(-c2cn(C)c3ccccc23)n1"
A. inactive

Q. Test call for this compound, please: Cc1nc(Nc2ccc(F)cc2)nc(N2CCc3ccccc3C2C)c1C (stereo not drawn)
A. inactive

Q. Test call for this compound, please: "CCCCCCCOc1cc2c(cc1/C(C)=C/c1ccc(C(=O)O)cc1)C(C)(C)CCS2(=O)=O"
A. inactive

Q. Test call for this compound, please: "Nc1nc(O)c(C2=C3C(=Nc4ccccc43)C(=O)NCC2)[nH]1"
A. inactive

Q. Test call for this compound, please: CC(=O)OC1CC2(C)C(CCC(C)C23Cc2c(O)cc(CO)c(C=O)c2O3)C(C)(C)C1O (stereo not drawn)
A. inactive

Q. Test call for this compound, please: CC(C)(O)C1CC(=O)C2(C)C(CCC3(C)C(c4ccoc4)OC(=O)C4OC432)C12CCC(=O)OC2 (stereo not drawn)
A. inactive
